experimental-target: human mAChR M1 (Homo sapiens, UniProt P11229)
Sequence (P11229 whole entry): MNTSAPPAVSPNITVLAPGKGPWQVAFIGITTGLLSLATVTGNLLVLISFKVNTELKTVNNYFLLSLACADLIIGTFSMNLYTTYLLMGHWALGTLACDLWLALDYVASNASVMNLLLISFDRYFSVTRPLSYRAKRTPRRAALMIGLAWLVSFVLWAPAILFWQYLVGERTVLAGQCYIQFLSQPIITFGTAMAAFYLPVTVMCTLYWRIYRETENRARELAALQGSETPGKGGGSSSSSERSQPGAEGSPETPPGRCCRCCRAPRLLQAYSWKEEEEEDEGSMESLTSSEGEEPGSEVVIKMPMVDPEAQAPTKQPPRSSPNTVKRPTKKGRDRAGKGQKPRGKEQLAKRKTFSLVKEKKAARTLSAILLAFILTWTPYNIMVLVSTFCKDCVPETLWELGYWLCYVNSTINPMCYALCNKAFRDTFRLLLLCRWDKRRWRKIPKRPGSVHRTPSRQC
procedure-details: mAChR M1 cell-based functional assay (calcium mobilization), PAM activity: increase in the EC20 acetylcholine response
stated-conditions: CHO-K1 cells expressing hM1; calcium flux (Fluo-4); potentiation of EC20 acetylcholine response
value-kind: Emax (%)

> print(dat)
                                   molecule  result
1  Cn1cc(-c2cc(Cc3ccc(-c4ccn(C)n4)cc3)cc(C(=O)N[C@H]3CCOC[C@@H]3O)n2)cn1 [Compound 39]      57

(a) Cc1c(Cc2ccc(-c3ccn(C)n3)nc2)cc(C(=O)N[C@H]2CCC[C@@H]2O)nc1-n1cccn1 [Compound 52]
(b) Cn1cc(-c2ccc(Cc3cc(C(=O)NC4CC5(COC5)C4)nc(-n4cccn4)c3)cn2)cn1 [Compound 21]
Task item: Hi team, can someone confirm which has the larger Emax: a or b ? Thanks. Answer format: the label of the selected item.
Reply: a
(a: 84%, b: 40%)

All figures here come from patent US11851406B2.
